Test system: IGROV1 ovarian
PROTOCOL_NOTES: NCI tumour cell line growth inhibition, 48 h
Please respond with reported TGI for every item in the list.

IN: State its TGI on IGROV1 ovarian: CC1=C(C(=O)Nc2ccc(F)c(Cl)c2)C(c2cccc(Cl)c2)NC(=S)N1 (stereo unspecified)
OUT: 39.2 µM

IN: Further, for Cc1ccc(S(=O)(=O)c2ccccc2)cc1 ?
OUT: > 100 µM

IN: Further, for CC1CCC2C(C)(C)CC3(C)CCC1C23O (stereo unspecified) ?
OUT: 29.4 µM

IN: Further, for CC(C)=CCNc1ncnc2c1c(C#N)cn2C1OC(CO)C(O)C1O (stereo unspecified) ?
OUT: > 100 µM

IN: Further, for Clc1cc(OC23CC4CC(CC(C4)C2)C3)nc(Cl)n1 ?
OUT: > 100 µM

IN: Further, for CNC(=O)c1ccccc1Nc1cc(Nc2ccc(N3CCOCC3)cc2OC)ncc1C(F)(F)F ?
OUT: > 100 µM

IN: Further, for Cc1nc2ccccc2nc1NNc1ccccc1 ?
OUT: 73.3 µM

IN: Further, for Cc1cn(CCCC2=NCCCN2)c(=O)[nH]c1=O ?
OUT: > 100 µM

IN: Further, for COC(=O)C1=C(O)C(C(=O)OC)[C@@]2(O)[C@@H](C(=O)OC)C(c3ccc(OC(=O)/C=C/c4ccccc4)cc3)C[C@@H]1[C@@H]2C(=O)OC (stereo partly specified) ?
OUT: > 100 µM

IN: Further, for CC(=O)NNc1nc(C)c(C(=O)/C=C/C=C/c2ccccc2)s1 ?
OUT: > 100 µM

IN: Further, for COc1cc2c(c(O)c1OC)C(=O)C1CCC(=O)N1C2c1cccc2ccccc12 (stereo unspecified) ?
OUT: > 100 µM

----------
Test system: OVCAR-5 ovarian
PROTOCOL_NOTES: NCI tumour cell line growth inhibition, 48 h
OBSERVABLE: TGI

IN: # lookup: TGI of CN[C@@H](C)C(=O)N[C@H]1CCS[C@H]2CC(C)(C)[C@@H](C(=O)N[C@H]3c4ccccc4C[C@H]3OCC#CC#CCO[C@@H]3Cc4ccccc4[C@@H]3NC(=O)[C@H]3N4C(=O)[C@@H](NC(=O)[C@H](C)NC)CCS[C@H]4CC3(C)C)N2C1=O
OUT: > 50 µM

IN: Further, for CCOC(=O)CCc1cccc2c1oc1c(CCNC(=O)OCC3c4ccccc4-c4ccccc43)cccc12 ?
OUT: > 100 µM

IN: Further, for COc1cccc2[nH]c3c4c(c5c(c3c12)C(=O)N(CN1CCN(C)CC1)C5=O)CCC4 ?
OUT: 44.6 µM

----------
Tested on: SW-620 colon
PROTOCOL_NOTES: NCI tumour cell line growth inhibition, 48 h
Please respond with reported TGI for every item in the list.
Your answer should be a plain number; it is taken to be in µM.

IN: # lookup: TGI of C[C@]12CC[C@@H]3c4cc(Br)c(O)c(Br)c4CC[C@H]3[C@@H]1CC(Br)C2=O (some centres not stated)
OUT: 9.57

IN: Further, for COc1cc(-c2nccn2-c2ccc3ccccc3c2)cc(OC)c1OC ?
OUT: 25.2

IN: Further, for O=C1C=CC(O)(C#CCO)C=C1 ?
OUT: 15.3

----------
System: CAKI-1 renal
PROTOCOL_NOTES: NCI tumour cell line growth inhibition, 48 h
Please respond with reported GI50 for every item in the list.

IN: State its GI50 on CAKI-1 renal: COc1cccc2[nH]c3c4c(c5c(c3c12)C(=O)N(CN1CCN(C)CC1)C5=O)CCC4
OUT: 4.34 µM

IN: Further, for Clc1ccc2c(N3CCN(c4ccnc(NC5CCCCC5)n4)CC3)ccnc2c1 ?
OUT: 2.21 µM

IN: Further, for COc1cc(/C=C/C(=O)c2ccc(Nc3nc(NCCO)nc(N4CCOCC4)n3)cc2)cc(OC)c1OC ?
OUT: 2.09 µM

Origin of measurements: PubChem BioAssay (NCI)
